In this section, each of the binders is paired with its reported Ki.
# experimental-target: human complement component C5 (human, UniProt P01031 19-673; P01031 678-1676)
# Sequence (P01031 19-673 limits assumed, chain 1 of 2): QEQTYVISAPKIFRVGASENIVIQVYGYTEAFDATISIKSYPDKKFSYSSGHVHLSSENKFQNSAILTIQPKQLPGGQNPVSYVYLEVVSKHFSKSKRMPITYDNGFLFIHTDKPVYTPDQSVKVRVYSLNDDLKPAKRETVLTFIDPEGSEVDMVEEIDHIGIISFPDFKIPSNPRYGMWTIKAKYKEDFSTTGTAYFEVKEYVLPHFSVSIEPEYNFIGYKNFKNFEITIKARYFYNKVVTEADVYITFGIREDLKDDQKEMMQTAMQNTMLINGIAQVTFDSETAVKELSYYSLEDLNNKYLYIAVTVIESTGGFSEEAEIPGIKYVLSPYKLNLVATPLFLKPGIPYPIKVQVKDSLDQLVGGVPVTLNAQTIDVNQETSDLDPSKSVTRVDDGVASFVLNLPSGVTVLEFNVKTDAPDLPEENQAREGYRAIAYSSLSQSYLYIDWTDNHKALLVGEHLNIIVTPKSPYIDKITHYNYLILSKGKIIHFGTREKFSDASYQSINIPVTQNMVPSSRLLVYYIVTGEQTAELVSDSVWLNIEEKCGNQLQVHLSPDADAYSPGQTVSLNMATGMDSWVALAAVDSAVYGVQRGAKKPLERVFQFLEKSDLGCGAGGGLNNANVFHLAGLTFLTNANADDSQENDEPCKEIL
# Sequence (P01031 678-1676 limits assumed, chain 2 of 2): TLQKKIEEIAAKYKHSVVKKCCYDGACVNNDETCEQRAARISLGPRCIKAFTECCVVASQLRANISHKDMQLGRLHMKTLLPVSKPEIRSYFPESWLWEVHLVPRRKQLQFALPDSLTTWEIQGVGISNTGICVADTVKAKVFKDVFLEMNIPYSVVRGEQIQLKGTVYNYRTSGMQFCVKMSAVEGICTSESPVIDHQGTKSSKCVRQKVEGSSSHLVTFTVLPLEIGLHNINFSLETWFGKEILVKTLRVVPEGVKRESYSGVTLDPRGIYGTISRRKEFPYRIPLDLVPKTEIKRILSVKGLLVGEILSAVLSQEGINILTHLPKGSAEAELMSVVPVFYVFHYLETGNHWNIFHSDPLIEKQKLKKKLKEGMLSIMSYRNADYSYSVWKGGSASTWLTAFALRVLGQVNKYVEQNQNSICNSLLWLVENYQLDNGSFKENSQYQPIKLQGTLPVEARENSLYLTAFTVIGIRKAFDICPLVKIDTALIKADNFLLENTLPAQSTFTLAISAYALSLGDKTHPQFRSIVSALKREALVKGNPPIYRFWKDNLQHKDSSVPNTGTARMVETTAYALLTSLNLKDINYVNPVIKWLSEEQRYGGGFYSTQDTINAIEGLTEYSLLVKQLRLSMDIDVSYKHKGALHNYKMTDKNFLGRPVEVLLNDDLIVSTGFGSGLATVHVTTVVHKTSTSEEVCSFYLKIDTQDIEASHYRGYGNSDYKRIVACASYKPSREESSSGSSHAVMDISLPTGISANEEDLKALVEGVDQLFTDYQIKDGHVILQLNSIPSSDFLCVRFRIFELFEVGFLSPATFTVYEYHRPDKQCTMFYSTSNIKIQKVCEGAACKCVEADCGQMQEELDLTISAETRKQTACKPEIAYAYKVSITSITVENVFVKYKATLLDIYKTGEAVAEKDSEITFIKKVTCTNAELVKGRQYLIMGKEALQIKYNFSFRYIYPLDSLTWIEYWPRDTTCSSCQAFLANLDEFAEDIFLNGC
Just the number please, in nM, no unit attached.

Given K8 knob domain peptide cleaved from the 645 Fab (Recombinant, cut out by TEV protease) peptide: GSVCPDGFNWGYGCAAGSSRFCTRHDWCCYDERADSHTYGFCTGNRVENLYFQ , state its recorded Ki.
12.8

Given GSSGCPPGYKSGVDCSPGSECKWGCYAVDGRRYGGYGADSGVENLYFQ (Recombinant, cut out by TEV protease) [K57 knob domain peptide cleaved from the 645 Fab] , state its recorded Ki.
1.8

Given K92 knob domain peptide cleaved from the 645 Fab (Recombinant, cut out by TEV protease) peptide: GSGSVTCPEGWSECGVAIYGYECGRWGCGHFLNSGPNISPYVTTGSENLYFQ , state its recorded Ki.
3.7
